# protocol.description: Cytotoxicity against human colon cancer cells by SRB method
# Type: functional
# assay.conditions: Cancer cell lines, read-out: ED50 (the source's name)
pEC50: −log10 of the molar value.
reported.property: pEC50

Examples with their reported pEC50 follow.
INSERT INTO assay_data (sample_smiles, test_value) VALUES
  ('C/C(=C\C=C\[C@@H](C)[C@H]1CC[C@@]2(C)[C@@H]3CC[C@H]4C(C)(C)C(=O)CC[C@]4(C)[C@@]3(O)CC[C@]12C)C(=O)O', '< 4.30'),
  ('C/C(=C\CC[C@@H](C)[C@H]1CC[C@@]2(C)[C@@H]3CC[C@H]4C(C)(C)C(=O)CC[C@]4(C)[C@@]3(O)CC[C@]12C)C(=O)O', '< 4.30'),
  ('C/C(=C\CC[C@@H](C)[C@H]1CC[C@@]2(C)[C@@H]3CC[C@H]4C(C)(C)[C@@H](O)CC[C@]4(C)[C@@]3(O)CC[C@]12C)C(=O)O', '< 4.30'),
  ('Cc1c2ccncc2c(C)c2c1[nH]c1ccccc12', 5.66),
  ('C/C(=C\C=C\[C@@H](C)[C@H]1CC[C@@]2(C)[C@@H]3CC[C@H]4C(C)(C)[C@]5(O)CC[C@]4(CO5)[C@@]3(O)CC[C@]12C)C(=O)O', 5.33);

pEC50 measured on `COC(=O)/C(C)=C/C=C/[C@@H](C)[C@H]1CC[C@@]2(C)[C@@H]3CC[C@H]4C(C)(C)[C@]5(O)CC[C@]4(CO5)[C@@]3(O)CC[C@]12C` = < 4.30

pEC50 measured on `COC(=O)/C(C)=C/C=C/[C@@H](C)[C@H]1CC[C@@]2(C)[C@@H]3CC[C@H]4C(C)(C)C(=O)CC[C@]4(C)C3=CC[C@]12C` = < 4.30

---

pEC50 values by entry
# protocol.description: Cytotoxicity against human A549 cells by SRB method
# Assay type: functional
# assay.conditions: read-out: ED50 (the source's name)
Scale: pEC50 equals -log10([C]), with [C] in mol/L.

Examples with their reported pEC50 follow.
INSERT INTO results (sample_smiles, test_value) VALUES
  ('C/C(=C\CC[C@@H](C)[C@H]1CC[C@@]2(C)[C@@H]3CC[C@H]4C(C)(C)[C@@H](O)CC[C@]4(C)[C@@]3(O)CC[C@]12C)C(=O)O', 4.46),
  ('Cc1c2ccncc2c(C)c2c1[nH]c1ccccc12', 5.90);

Lab note: next compound to report on.
pEC50 measured on `C/C(=C\C=C\[C@@H](C)[C@H]1CC[C@@]2(C)[C@@H]3CC[C@H]4C(C)(C)[C@]5(O)CC[C@]4(CO5)[C@@]3(O)CC[C@]12C)C(=O)O` = 5.24

---

# protocol.description: Cytotoxicity against human HEK293 cells by SRB method
# Format: toxicity, cell-based
# assay.conditions: read-out: ED50 (the source's name)
CC50 values by entry

Examples with their reported CC50 follow.
INSERT INTO assay_data (sample_smiles, reported_property, test_value) VALUES
  ('C/C(=C\C=C\[C@@H](C)[C@H]1CC[C@@]2(C)[C@@H]3CC[C@H]4C(C)(C)C(=O)CC[C@]4(C)[C@@]3(O)CC[C@]12C)C(=O)O', 'CC50', '> 50 µM'),
  ('C/C(=C\CC[C@@H](C)[C@H]1CC[C@@]2(C)[C@@H]3CC[C@H]4C(C)(C)[C@@H](O)CC[C@]4(C)[C@@]3(O)CC[C@]12C)C(=O)O', 'CC50', '> 50 µM'),
  ('Cc1c2ccncc2c(C)c2c1[nH]c1ccccc12', 'CC50', '2.03 µM'),
  ('COC(=O)/C(C)=C/C=C/[C@@H](C)[C@H]1CC[C@@]2(C)[C@@H]3CC[C@H]4C(C)(C)C(=O)CC[C@]4(C)C3=CC[C@]12C', 'CC50', '> 50 µM'),
  ('C/C(=C\CC[C@@H](C)[C@H]1CC[C@@]2(C)[C@@H]3CC[C@H]4C(C)(C)C(=O)CC[C@]4(C)[C@@]3(O)CC[C@]12C)C(=O)O', 'CC50', '> 50 µM'),
  ('COC(=O)/C(C)=C/C=C/[C@@H](C)[C@H]1CC[C@@]2(C)[C@@H]3CC[C@H]4C(C)(C)[C@]5(O)CC[C@]4(CO5)[C@@]3(O)CC[C@]12C', 'CC50', '> 50 µM');

Lab note: next compound to report on.
CC50 measured on `C/C(=C\C=C\[C@@H](C)[C@H]1CC[C@@]2(C)[C@@H]3CC[C@H]4C(C)(C)[C@]5(O)CC[C@]4(CO5)[C@@]3(O)CC[C@]12C)C(=O)O` = 6.89 µM
